For each record, write down the corresponding parasite growth, % of DMSO control.
Assay: qHTS profiling of the MIPE4 collection as inhibitors of Plasmodium falciparum (3D7) proliferation (AID 743344);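 also: scaled between DMSO vehicle wells and 0.29 µM artemisinin as full inhibition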
Details: P. falciparum 3D7 in erythrocytes, SYBR Green DNA fluorescence, 72 h; at 28.5 µM unless noted
Report the value in % with no unit label.

Lookup: # return recorded parasite growth, % of DMSO control for input C#CCC(Cc1cnc2nc(N)nc(N)c2n1)c1ccc(C(=O)N[C@@H](CCC(=O)O)C(=O)O)cc1 (stereo not given in full)
Found: 21.7

Lookup: # return recorded parasite growth, % of DMSO control for input N#CC(=Cc1ccc(O)c(O)c1)C(=O)NCc1ccccc1
Found: 42.9

Lookup: # return recorded parasite growth, % of DMSO control for input Cc1cc(-c2nnc3n2CCCCC3)c(C)n1-c1ccccc1
Found: 23

Lookup: # return recorded parasite growth, % of DMSO control for input CC(=CC(=O)Nc1ccccc1C(=O)O)c1ccc2ccccc2c1
Found: 383

Lookup: # return recorded parasite growth, % of DMSO control for input O=C(NNC(=O)c1ccc(CNS(=O)(=O)c2ccc(F)c(Cl)c2)cc1)c1ccccc1
Found: 371

Lookup: # return recorded parasite growth, % of DMSO control for input COc1cc(C)c(C=CC(C)=CC=CC(C)=CC(=O)O)c(C)c1C
Found: 85.8

Lookup: # return recorded parasite growth, % of DMSO control for input c1ccc(CNc2nc(NCc3ccccc3)c3ccccc3n2)cc1
Found: 5.75

Lookup: # return recorded parasite growth, % of DMSO control for input NS(=O)(=O)OC[C@@H]1C[C@@H](n2ccc3c(N[C@H]4CCc5ccccc54)ncnc32)C[C@H]1O
Found: 23.8

Lookup: # return recorded parasite growth, % of DMSO control for input CC(=O)OCC(=O)[C@@]1(O)CC[C@H]2[C@@H]3CCC4=CC(=O)CC[C@]4(C)[C@@H]3C(=O)C[C@@]21C
Found: 68.4

* * *

Test: Quantitative High-Throughput drug screen in 47 multiple myeloma cell lines against the NCATS MIPE library collection: KMS34_JCRB cell viability assay (AID 1918985); also: nearly all actives have a fitted effect of over 40% in size
Settings: KMS34 myeloma viability, CellTiter-Glo ATP luminescence, 48 h; series mostly up to 45.8 µM
Records with an inconclusive call do not appear. Activity calls are given as the source filed them. Calls follow the shape of the dose curve; as a rule, active = well fitted cell-killing curve with a large enough effect; inconclusive = small, poorly fitted or top-dose-only effect, or effect the other way; inactive = no such curve, though single readings can be large or run the other way. Non-standard residues stand in square brackets, D forms with d. Residues, ends and D or L forms follow the SMILES beside them. *: point of attachment. Nva = CCC[C@H](N)C(=O)O; Cbz = O=C(OCc1ccccc1)*
Lab note: assign the record to one of active, inactive

Lookup: Could you kindly confirm the outcome this assay logged for Oc1cc2c(cc1O)C1c3ccc(O)c(O)c3OCC1(O)C2 (stereo not given) ?
Found: inactive

Lookup: Could you kindly confirm the outcome this assay logged for Cc1cc(O)c2c(c1)C(=O)c1cccc(O)c1C2=O ?
Found: inactive

Lookup: Could you kindly confirm the outcome this assay logged for C[C@H]1COc2c(N3CCN(C)CC3)c(F)cc3c(=O)c(C(=O)O)cn1c23 ?
Found: inactive

Lookup: Could you kindly confirm the outcome this assay logged for CCNC(=O)Nc1ccc(-c2nc3c(c(N4CCOC[C@H]4C)n2)CCN(C2COC2)C3)cc1 ?
Found: active

Lookup: Could you kindly confirm the outcome this assay logged for CCCCCCCCc1ccc(CCC(N)(CO)CO)cc1 ?
Found: active

Lookup: Could you kindly confirm the outcome this assay logged for Cc1noc(-c2ccc(CSCCC(=O)O)cc2)c1NC(=O)OC(C)c1ccccc1Cl (stereo not given) ?
Found: inactive

Lookup: Could you kindly confirm the outcome this assay logged for CN[C@H](CC(C)C)C(=O)N[C@H]1C(=O)N[C@@H](CC(N)=O)C(=O)N[C@@H]2C(=O)N[C@H]3C(=O)N[C@H](C(=O)N[C@H](C(=O)O)c4cc(O)cc(O)c4-c4cc3ccc4O)[C@H](O)c3ccc(c(Cl)c3)Oc3cc2cc(c3O[C@@H]2O[C@H](CO)[C@@H](O)[C@H](O)[C@@H]2O[C@H]2C[C@](C)(N)[C@H](O)[C@H](C)O2)Oc2ccc(cc2Cl)[C@H]1O ?
Found: inactive

Lookup: Could you kindly confirm the outcome this assay logged for COc1ccc(S(=O)(=O)Nc2cc(-c3c(O)ccc4ccccc34)c(O)c3ccccc23)cc1 ?
Found: active

Lookup: Could you kindly confirm the outcome this assay logged for Nc1nc2c(c(=O)[nH]1)N(C=O)[C@H](CNc1ccc(C(=O)N[C@@H](CCC(=O)O)C(=O)O)cc1)CN2 ?
Found: inactive

Lookup: Could you kindly confirm the outcome this assay logged for COC(=O)[C@H](CCCN=C(N)N)NS(=O)(=O)c1ccc(C)cc1 ?
Found: inactive

Lookup: Could you kindly confirm the outcome this assay logged for Cc1cn([C@@H]2O[C@H](CO)[C@@H](O)[C@H]2F)c(=O)[nH]c1=O ?
Found: inactive

Lookup: Could you kindly confirm the outcome this assay logged for O=C1CSC(=O)N1C(CCc1ccncc1)COc1ccc(-c2cccc([N+](=O)[O-])c2)cc1 (stereo not given) ?
Found: active

Lookup: Could you kindly confirm the outcome this assay logged for CC1(C)[C@H](O[C@H]2O[C@H](C(=O)O)[C@@H](O)[C@H](O)[C@H]2O[C@@H]2O[C@H](C(=O)O)[C@@H](O)[C@H](O)[C@H]2O)CC[C@@]2(C)[C@H]1CC[C@]1(C)[C@H]2C(=O)C=C2[C@H]3C[C@@](C)(C(=O)O)CC[C@]3(C)CC[C@]21C ?
Found: inactive

Lookup: Could you kindly confirm the outcome this assay logged for CCC[C@@H](C=O)NC(=O)[C@H](CC(C)C)NC(=O)[C@H](CC(C)C)NC(=O)OCc1ccccc1 (Cbz-Leu-Leu-[Nva]-aldehyde) ?
Found: active

Lookup: Could you kindly confirm the outcome this assay logged for O=C1NC(=O)C(=Cc2ccc3nccc(-c4ccncc4)c3c2)S1 ?
Found: active
